Procedure Details: Half life in rat
Format: ADME, organism-based
Measurement Conditions: in vivo
Measured Property: half-life (h)
Response body: numeric value in h, unit text excluded.

Challenge: Which half-life is listed for O=c1[nH]cnc2c1ncn2[C@H]1CC[C@@H](CO)O1 ?
Response given: 1

* * *

Procedure Details: Cytotoxicity against human PBMC assessed as inhibition of cell growth by trypan blue staining
Type: cell-based
Measurement Conditions: read-out: CCID50
Measured Property: log10 of CC50 (log10 of the value in µM)
Short version: log10 scale, CC50, µM.

{"Compound": "CCCCCOC(=O)OC[C@@H]1CC[C@H](n2cnc3c(=O)nc[nH]c32)O1", "log10 of CC50": 3.85}

Challenge: Any idea what its log10 of CC50 is? The compound is CCOC(=O)OC[C@@H]1CC[C@H](n2cnc3c(=O)nc[nH]c32)O1
Response given: 2.76

Challenge: Consider the compound CCCCCCCOC(=O)OC[C@@H]1CC[C@H](n2cnc3c(=O)nc[nH]c32)O1 and give its measured log10 of CC50.
Response given: 2.72

Challenge: // log10 of CC50 lookup, key: CCCCCCOC(=O)OC[C@@H]1CC[C@H](n2cnc3c(=O)nc[nH]c32)O1
Response given: 2.34

Challenge: Report log10 of CC50 for CCCCOC(=O)OC[C@@H]1CC[C@H](n2cnc3c(=O)nc[nH]c32)O1 please.
Response given: 2.46

Challenge: Please give the measured log10 of CC50 for this compound: O=c1[nH]cnc2c1ncn2[C@H]1CC[C@@H](CO)O1 [DIDANOSINE]
Response given: 2.00
